B1: LOXL2 (parent)
chain: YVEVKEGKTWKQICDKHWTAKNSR

variants of: B1; assay: protein stability index of a GFP-peptide fusion (GPS, HEK-293T) (PSI 1-6); higher = more stable; conditions: c terminus: a fixed tail appended;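 further: lentivirally expressed fusions sorted by FACS into six bins by GFP to DsRed ratio, PSI derived from sequencing read proportions per bin multiplied by bin number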
Kindly return True if reported protein stability index is no lower than 3; return False if it is lower.

Could you verify whether the entry `G7D` shows protein stability index of no less than 3?
False

Try this variant next: `R24N`
False

Try this variant next: `E6H`
False

Try this variant next: `K11W`
True

Try this variant next: `H17V`
True

Try this variant next: `K5H`
False

Try this variant next: `N22F`
False

Try this variant next: `Y1A`
True

Try this variant next: `D15C`
False

Try this variant next: `C14F`
False

Try this variant next: `T19Q`
True

Try this variant next: `H17I`
False

Try this variant next: `Q12I`
True

Try this variant next: `G7T`
False

Try this variant next: `S23M`
False

Try this variant next: `T19V`
False

Try this variant next: `T19Y`
False

Try this variant next: `N22T`
False

Try this variant next: `T9F`
True
